- ASSAY_OVERVIEW: toxicity (LD50) by the method of Karber and Behrens
- Type: in vivo, mice
- RUN_CONDITIONS: mouse, in vivo; mice, po
Entries and their LD50
Quick note: give the figure in mg/kg, leave out the unit.

Query: I have this molecule here, CCCCCNc1ccc(OCC(=O)NC(C)Cc2cccc(C(F)(F)F)c2)cc1 (stereo not shown) , and I need its recorded LD50.
Reply: 4000

Further cases:
Query: I have this molecule here, CCNc1ccc(OCC(=O)NC(C)Cc2cccc(C(F)(F)F)c2)cc1 (stereo not shown) , and I need its recorded LD50.
Reply: 1600

Query: Request: CNc1ccc(OCC(=O)NC(C)Cc2cccc(C(F)(F)F)c2)cc1 (stereo not shown)
Reply: 800
